# pIC50 values compiled below
System: A549
Test: Cytotoxicity against human A549 cells expressing wild type p53 assessed as reduction in cell viability preincubated for 48 hrs and measured after 4 hrs by MTT assay
Type: functional, cell-based
pIC50: −log10 of the molar value.
assay readout: pIC50

>  <compound>
Clc1ccc2nc(/C=C/c3ccc4c(c3)OCO4)nc(NCCN3CCCCC3)c2c1

>  <measured result>
< 4.00

$$$$
>  <compound>
COc1ccc(/C=C/c2nc(NCCCCN)c3ccccc3n2)cc1OC

>  <measured result>
< 4.00

$$$$
>  <compound>
COc1ccc(/C=C/c2nc(NCCN3CCCCC3)c3cc(Cl)ccc3n2)cc1OC

>  <measured result>
< 4.00

$$$$
>  <compound>
CC(C)N(CCNc1nc(/C=C/c2ccc([N+](=O)[O-])cc2)nc2ccccc12)C(C)C

>  <measured result>
< 4.00

$$$$
>  <compound>
CN(C)CCNc1nc(/C=C/c2ccc3c(c2)OCO3)nc2ccccc12

>  <measured result>
< 4.00

$$$$
>  <compound>
CC(C)N(CCNc1nc(/C=C/c2ccc3c(c2)OCO3)nc2ccc(Cl)cc12)C(C)C

>  <measured result>
< 4.00

$$$$
>  <compound>
CN(C)CCCNc1nc(/C=C/c2ccc3c(c2)OCO3)nc2ccc(Cl)cc12

>  <measured result>
< 4.00

$$$$
>  <compound>
CN(C)CCNc1nc(/C=C/c2ccc([N+](=O)[O-])cc2)nc2ccc(Cl)cc12

>  <measured result>
< 4.00

$$$$
>  <compound>
CN(C)CCCNc1nc(/C=C/c2ccc3c(c2)OCO3)nc2ccccc12

>  <measured result>
< 4.00

$$$$
>  <compound>
C(=C\c1nc(NCCN2CCOCC2)c2ccccc2n1)/c1ccc2c(c1)OCO2

>  <measured result>
< 4.00

$$$$
>  <compound>
COc1ccc(/C=C/c2nc(NCCN3CCCCC3)c3ccccc3n2)cc1OC

>  <measured result>
4.08

$$$$
>  <compound>
NCCCCNc1nc(/C=C/c2ccc([N+](=O)[O-])cc2)nc2ccccc12

>  <measured result>
5.26

$$$$
>  <compound>
COc1cccc2c1C(=O)c1c(O)c3c(c(O)c1C2=O)C[C@@](O)(C(=O)CO)C[C@@H]3O[C@H]1C[C@H](N)[C@@H](O)[C@H](C)O1 [EPIRUBICIN]

>  <measured result>
6.09

$$$$
>  <compound>
CN(C)CCCNc1nc(/C=C/c2ccc([N+](=O)[O-])cc2)nc2ccc(Cl)cc12

>  <measured result>
4.80

$$$$
>  <compound>
CCN(CC)CCNc1nc(/C=C/c2ccc([N+](=O)[O-])cc2)nc2ccccc12

>  <measured result>
< 4.00

$$$$
>  <compound>
CCN(CC)CCCNc1nc(/C=C/c2ccc(OC)c(OC)c2)nc2ccccc12

>  <measured result>
< 4.00

$$$$
>  <compound>
CN(C)CCNc1nc(/C=C/c2ccc([N+](=O)[O-])cc2)nc2ccccc12

>  <measured result>
4.47

$$$$
>  <compound>
CCN(CC)CCCNc1nc(/C=C/c2ccc(OC)c(OC)c2)nc2ccc(Cl)cc12

>  <measured result>
< 4.00

$$$$
>  <compound>
CCN(CC)CCCNc1nc(/C=C/c2ccc([N+](=O)[O-])cc2)nc2ccccc12

>  <measured result>
< 4.00

$$$$
>  <compound>
COc1ccc(/C=C/c2nc(NCCCCN)c3cc(Cl)ccc3n2)cc1OC

>  <measured result>
4.30

$$$$
>  <compound>
CCN(CC)CCCNc1nc(/C=C/c2ccc3c(c2)OCO3)nc2ccc(Cl)cc12

>  <measured result>
< 4.00

$$$$
>  <compound>
CCN(CC)CCNc1nc(/C=C/c2ccc([N+](=O)[O-])cc2)nc2ccc(Cl)cc12

>  <measured result>
< 4.00

$$$$
>  <compound>
NCCCCNc1nc(/C=C/c2ccc([N+](=O)[O-])cc2)nc2ccc(Cl)cc12

>  <measured result>
5.00

$$$$
>  <compound>
CC(C)N(CCNc1nc(/C=C/c2ccc([N+](=O)[O-])cc2)nc2ccc(Cl)cc12)C(C)C

>  <measured result>
< 4.00

$$$$
>  <compound>
CCN(CC)CCNc1nc(/C=C/c2ccc3c(c2)OCO3)nc2ccccc12

>  <measured result>
4.33

$$$$
>  <compound>
COc1ccc(/C=C/c2nc(NCCN(C(C)C)C(C)C)c3ccccc3n2)cc1OC

>  <measured result>
4.41

$$$$
>  <compound>
O=[N+]([O-])c1ccc(/C=C/c2nc(NCCN3CCCCC3)c3ccccc3n2)cc1

>  <measured result>
4.55

$$$$
>  <compound>
COc1ccc(/C=C/c2nc(NCCCN(C)C)c3ccccc3n2)cc1OC

>  <measured result>
< 4.00

$$$$
>  <compound>
CCN(CC)CCCNc1nc(/C=C/c2ccc([N+](=O)[O-])cc2)nc2ccc(Cl)cc12

>  <measured result>
4.12

$$$$
>  <compound>
O=[N+]([O-])c1ccc(/C=C/c2nc(NCCN3CCCCC3)c3cc(Cl)ccc3n2)cc1

>  <measured result>
4.39

$$$$
>  <compound>
O=[N+]([O-])c1ccc(/C=C/c2nc(NCCN3CCOCC3)c3ccccc3n2)cc1

>  <measured result>
< 4.00

$$$$
>  <compound>
O=[N+]([O-])c1ccc(/C=C/c2nc(NCCN3CCOCC3)c3cc(Cl)ccc3n2)cc1

>  <measured result>
< 4.00

$$$$
>  <compound>
CCN(CC)CCNc1nc(/C=C/c2ccc(OC)c(OC)c2)nc2ccccc12

>  <measured result>
< 4.00

$$$$
>  <compound>
CN(C)CCNc1nc(/C=C/c2ccc3c(c2)OCO3)nc2ccc(Cl)cc12

>  <measured result>
< 4.00

$$$$
>  <compound>
CC(C)N(CCNc1nc(/C=C/c2ccc3c(c2)OCO3)nc2ccccc12)C(C)C

>  <measured result>
< 4.00

$$$$
>  <compound>
COc1ccc(/C=C/c2nc(NCCN3CCOCC3)c3cc(Cl)ccc3n2)cc1OC

>  <measured result>
< 4.00

$$$$
>  <compound>
CCN(CC)CCNc1nc(/C=C/c2ccc3c(c2)OCO3)nc2ccc(Cl)cc12

>  <measured result>
< 4.00

$$$$
>  <compound>
Clc1ccc2nc(/C=C/c3ccc4c(c3)OCO4)nc(NCCN3CCOCC3)c2c1

>  <measured result>
< 4.00

$$$$
>  <compound>
NCCCCNc1nc(/C=C/c2ccc3c(c2)OCO3)nc2ccc(Cl)cc12

>  <measured result>
5.01

$$$$
